Reported values of TGI for individual entries
# Tested on: 786-0 renal
# assay.procedure: NCI tumour cell line growth inhibition, 48 h
readout.name: TGI

Clc1cc(OCc2nn3c(Cc4ccccc4)nnc3s2)ccc1OCc1nn2c(Cc3ccccc3)nnc2s1 ... 56.8 µM
O=[N+]([O-])c1ccc(N=Nc2c(O)ccc3cc(S(=O)(=O)O)ccc23)cc1 ... > 100 µM
COC(=O)[C@H]1[C@H]2C[C@@H]3c4[nH]c5cc(OC)ccc5c4CCN3C[C@H]2C[C@@H](OC(=O)c2cc(OC)c(OC)c(OC)c2)[C@@H]1OC ... 27.7 µM
CCCCSN1C(=O)c2ccccc2C1=S ... > 100 µM
O=C1c2cccc3cc([N+](=O)[O-])cc(c23)C(=O)N1NC1=NCCN1 ... > 100 µM
CCOc1cc(-c2nc3ccccn3c2/N=C/c2cc([N+](=O)[O-])cc([N+](=O)[O-])c2O)ccc1O ... > 100 µM
C[C@@]12c3c4ccc(C=O)c3Oc3ccc(C=O)c(c31)Oc1c(C=O)ccc(c12)O4 ... > 100 µM
O=C(COc1ccc(/C=C2\Oc3ccccc3C2=O)cc1)Nc1nccs1 ... > 100 µM
Oc1c(C(Nc2cccc3ccccc23)c2ccccc2)ccc2cccnc12 (stereo unspecified) ... 76.3 µM
O=C1CSC(/C=C/c2ccccc2)N1c1ccc(-c2ccc(-n3c(-c4ccccc4)nc4ccccc4c3=O)cc2)cc1 (stereo unspecified) ... 29.6 µM
Cc1nc2ccccc2c(=O)n1-c1n[nH]c2ccccc12 ... > 100 µM

###

# Test system: RXF-631 renal
# assay.procedure: NCI tumour cell line growth inhibition, 48 h
Parameter TGI: see the listing below.
readout.name: TGI

COC1C(O)C(C)OC(OC2C(Oc3cccc4c(O)c5c(=O)oc6ccc(C)c7c(=O)oc(c34)c5c67)OC(C)C3O[C@H](c4ccccc4)OC32)C1O (stereo not given in full) ... 2.37 µM
COc1cc(=O)oc(/C=C/C=O)c1C ... 27.9 µM
CCCCSN1C(=O)c2ccccc2C1=S ... > 100 µM
CCCN(CCCN)/[N+]([O-])=N\O ... > 100 µM
O=C(N/C(=C\c1ccccc1[N+](=O)[O-])c1nc2ccccc2[nH]1)c1ccccc1 ... > 100 µM
O=C1c2cccc3cc([N+](=O)[O-])cc(c23)C(=O)N1NC1=NCCN1 ... > 100 µM
COc1ccc(C2=Nc3ccccc3SC(C)C2)cc1 (stereo not given) ... > 100 µM
C[C@@H](C1CCC2C3C(=CC(=O)[C@@]21C)[C@H](C)[C@]1(CCC(=O)O1)C1OC31)[C@H]1C[C@]2(C)O[C@@](C)(O1)OC2(C)C (stereo not given in full) ... > 100 µM
Cc1ccc(NC(=O)CC/C(CC(=O)C(C)(C)C)=N/NC(=O)C(N)=O)cc1C ... > 100 µM
COc1c(C2=NC(C(C)C)CO2)ccc2ccccc12 (stereo not given) ... > 100 µM

###

# Tested on: COLO 205 colon
# assay.procedure: NCI tumour cell line growth inhibition, 48 h
Here, each record is paired with measured TGI data.
readout.name: TGI (µM)

CC1(C)C(c2ccccc2)C12CCC1(C2=O)C(c2ccccc2)C1(C)C (stereo unspecified) ... 33.6
N=Nc1c(OC(=O)Nc2ccccc2)[nH]c2ccccc12 ... 42.9
C=C1C(=O)O[C@H]2[C@H]1CC/C(Cn1cc(CNCCc3c[nH]c4ccc(Cl)cc34)nn1)=C\CC[C@@]1(C)O[C@@H]21 ... 3.75

###

# Test system: HCT-116 colon
# assay.procedure: NCI tumour cell line growth inhibition, 48 h
We begin with a simple list: items and their reported GI50.
readout.name: GI50

O=S(=O)(Nc1cc(Br)c(O)c2ccccc12)c1ccc(F)cc1 ... 2330 nM
COc1cc(-c2nn(-c3ccc(NC(=O)Nc4ccc(Cl)c(Cl)c4)cc3)cc2-c2ccncc2)ccc1Cl ... 3080 nM
COc1cc(-c2n/c(=C\c3c(O)[nH]c4ccc(Cl)cc34)cc3c2=Nc2ccccc2-3)cc(OC)c1OC ... 232 nM
CC1=CC[C@@H]2C(C)(C)C(=O)CC[C@@]2(C)[C@@H]1COc1ccc2ccc(=O)oc2c1 ... 16400 nM
Cc1cc2cccnc2c2ncccc12 ... 1140 nM
N#CC(C#N)=Cc1c(-c2ccccc2)[nH]c2ccccc12 ... 2210 nM
CN(C)c1ccc(-c2ccc(-c3ccc(C(=N)N)c(F)c3)s2)cc1 ... 1170 nM
C=CCn1c(=O)c2cnc(Nc3ccc(N4CCN(C)CC4)cc3)nc2n1-c1ccc2c(n1)[C@@](O)(CC)CC2 ... 415 nM
COc1cccc(C(=O)Nc2ccc(CN3CCc4nc5cc(OC)c(OC)cc5cc43)cc2)c1 ... 3120 nM
O=C(Cn1c(=O)c(-c2ccccc2)nc2ccccc21)c1ccc(Cl)cc1 ... > 100000 nM

###

# Tested on: HOP-92 NSCLC
# assay.procedure: NCI tumour cell line growth inhibition, 48 h
readout.name: TGI

COc1ccc(OC)c([N+](=O)[O-])c1-c1nc2sccn2c1/C=N/N=C(N)N ... > 100 µM
CN(C)c1ccc(-c2ccc(-c3ccc(C(=N)N)c(F)c3)s2)cc1 ... 3.03 µM
Cc1cc2cccnc2c2ncccc12 ... 17.2 µM
Oc1c(C(Nc2cccc3ccccc23)c2ccccc2)ccc2cccnc12 (stereo not given) ... 36.3 µM
COc1cc(-c2n/c(=C\c3c(O)[nH]c4ccc(Cl)cc34)cc3c2=Nc2ccccc2-3)cc(OC)c1OC ... 3.32 µM
CN1CCN(c2ccc(-c3ccc4ncc(C#N)c(Nc5ccc(F)c(Cl)c5)c4c3)cc2)CC1 ... 28.4 µM
CCC[C@H](O)[C@@H](CNc1cc(NC(C)=O)nc(NC(C)=O)n1)N(Cc1ccccc1)Cc1ccccc1 ... > 100 µM
Cc1c(/C=N/NC(=S)Nc2cccc(Cl)c2)c(=O)n(-c2ccccc2)n1C ... 31.7 µM
COC(=O)C1=C(OC(=O)/C(=C/c2ccc(Cl)cc2Cl)c2ccc(Cl)cc2Cl)C(C(=O)OC)[C@@]2(O)[C@@H](C(=O)OC)[C@H](C)C[C@@H]1[C@@H]2C(=O)OC (stereo not given in full) ... > 100 µM
CC(C)(C)OC(=O)NC1CC=CCC1NC(=O)OC(C)(C)C (stereo not given) ... > 100 µM
Cc1ccc(NC(=O)CC/C(CC(=O)C(C)(C)C)=N/NC(=O)C(N)=O)cc1C ... > 100 µM
CC(C)N(C(=O)C12C3C4C5C3C1(C(=O)N(C(C)C)C(C)C)C5(C#N)C42)C(C)C (stereo not given) ... > 100 µM
Oc1[nH]c2ccccc2c1N=NC(=S)N1CCCCC1 ... 6.58 µM
Cc1csc(/C=N/NC(=O)c2nnn(-c3ccnc4c(C(F)(F)F)cccc34)c2C)c1 ... > 100 µM
Cc1c(C)c2c(c(C)c1NC(=O)/C=C\C(=O)O)CCC(C)(CCCC(C)CCCC(C)CCCC(C)C)O2 (stereo not given) ... 2.35 µM
Clc1ccccc1C(n1ncc2ccccc21)n1ncc2ccccc21 ... > 100 µM
c1cc(-c2csc(-c3ccsc3)c2)cs1 ... > 100 µM
Cc1cc(Cc2cc(C)c(O)c(C)c2)cc(C)c1O ... 29.4 µM
O=c1[nH][nH]c(=O)[nH]1 ... > 100 µM
O=C(CC(=O)C(=O)Nc1ccccc1)CC(c1ccccc1)c1c(O)c2ccccc2oc1=O (stereo not given) ... > 100 µM

###

# Test system: SNB-75 CNS
# assay.procedure: NCI tumour cell line growth inhibition, 48 h; in the data active = GI50 below about 0.43 µM; inactive = the rest
Classes used: active, inactive

COc1ccc(-c2nn(-c3ccc(NC(=O)c4ccc(Cl)c(C(F)(F)F)c4)cc3)cc2-c2ccncc2)cc1Cl ... active
N#CC(C#N)=Cc1c(-c2ccccc2)[nH]c2ccccc12 ... inactive
CN(C)c1ccc2c(c1)CN1C(=O)c3ccccc3C1=N2 ... inactive

###

# Tested on: KM12 colon
# assay.procedure: NCI tumour cell line growth inhibition, 48 h
# maps each entry to its TGI
readout.name: TGI

CCC(C)C(C(=O)N/N=C1/SCC(=O)N1C)C(=O)N/N=C1/SCC(=O)N1C (stereo not given) ... > 100 µM
O=C(O)CN=C(C(=NCC(=O)O)c1ccccc1)c1ccccc1 ... > 100 µM
O=C(CC(=O)C(=O)Nc1ccccc1)CC(c1ccccc1)c1c(O)c2ccccc2oc1=O (stereo not given) ... > 100 µM
C=C1CC(Cn2ccc(=O)[nH]c2=O)(c2ccc(-c3ccccc3)cc2)OC1=O (stereo not given) ... 12.9 µM
Cc1nc(Cl)c(Cl)c(Cl)n1 ... 1 µM
Cc1nc2ccccc2c(=O)n1-c1n[nH]c2ccccc12 ... > 100 µM
CNC(C)Cc1ccccc1O (stereo not given) ... > 100 µM
O=[N+]([O-])c1cc([N+](=O)[O-])c(Cl)c(Cl)c1Cl ... 3.76 µM
O=S(=O)(C(=Ic1ccccc1)S(=O)(=O)C(F)(F)C(F)(F)C(F)(F)C(F)(F)F)C(F)(F)C(F)(F)C(F)(F)C(F)(F)F ... 41.7 µM
CC1C2=C(CC(C)(C)CC2=O)NC2=C1C(=O)CC(C)(C)C2 ... > 100 µM
